So I've got a bunch of molecules here, and I need their IC50 values.
# TARGET_UNDER_TEST: PRMT5 (Homo sapiens, UniProt O14744)
# Construct: purchased Viva (custom protein)
# Sequence (O14744 whole entry): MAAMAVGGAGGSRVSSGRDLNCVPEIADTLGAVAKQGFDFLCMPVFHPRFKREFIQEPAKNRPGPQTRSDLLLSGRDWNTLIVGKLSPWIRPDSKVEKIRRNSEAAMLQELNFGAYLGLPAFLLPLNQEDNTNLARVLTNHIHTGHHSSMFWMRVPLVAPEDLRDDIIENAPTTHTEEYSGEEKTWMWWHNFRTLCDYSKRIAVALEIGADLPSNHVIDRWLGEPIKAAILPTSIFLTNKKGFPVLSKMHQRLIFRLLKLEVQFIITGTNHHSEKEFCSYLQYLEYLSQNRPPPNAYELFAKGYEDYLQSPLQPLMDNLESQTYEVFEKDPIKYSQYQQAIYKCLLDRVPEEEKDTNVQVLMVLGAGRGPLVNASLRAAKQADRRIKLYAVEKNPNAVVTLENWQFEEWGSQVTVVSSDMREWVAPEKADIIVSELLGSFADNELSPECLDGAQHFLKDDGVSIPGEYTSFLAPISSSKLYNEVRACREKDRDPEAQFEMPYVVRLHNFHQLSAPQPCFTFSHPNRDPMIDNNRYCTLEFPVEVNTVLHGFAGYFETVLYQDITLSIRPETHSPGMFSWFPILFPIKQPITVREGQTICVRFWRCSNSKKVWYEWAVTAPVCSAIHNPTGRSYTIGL
# Sequence (Q9BQA1 whole entry partner): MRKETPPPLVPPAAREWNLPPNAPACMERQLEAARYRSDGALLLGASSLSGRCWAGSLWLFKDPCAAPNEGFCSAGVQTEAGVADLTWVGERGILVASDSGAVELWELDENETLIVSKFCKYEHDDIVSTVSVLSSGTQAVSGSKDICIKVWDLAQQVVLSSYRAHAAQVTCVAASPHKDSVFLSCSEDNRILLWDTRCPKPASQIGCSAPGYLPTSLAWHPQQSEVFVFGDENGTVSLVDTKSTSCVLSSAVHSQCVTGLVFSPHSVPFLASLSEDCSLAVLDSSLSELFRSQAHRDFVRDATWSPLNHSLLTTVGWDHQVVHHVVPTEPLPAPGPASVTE
# ASSAY_NOTES: PRMT5 IC50 assay in the presence of SAM as cofactor
# Format: biochemical

// below: answered molecules
{"MOLECULE": "Cc1ncoc1COc1ccc2c(c1C)CCN(C[C@@H](O)CNC(=O)c1cc(NC3COC3)nc(N3CCCCC3)n1)C2 [Compound 391]", "TARGET_UNDER_TEST": "PRMT5 (Homo sapiens, UniProt O14744)", "IC50": "0.05 to 0.5 µM"}
{"MOLECULE": "CC(=O)N1CCC(Nc2cc(C(=O)NC[C@H](O)CN3CCc4cc(OCc5cnn[nH]5)ccc4C3)ncn2)CC1 [Compound 257]", "TARGET_UNDER_TEST": "PRMT5 (Homo sapiens, UniProt O14744)", "IC50": "0.5 to 5 µM"}
{"MOLECULE": "CCCN(C)c1cc(C(=O)NC[C@H](O)CN2CCc3cc(OCc4ocnc4C)ccc3C2)cc(NC2CCC2)n1 [Compound 553]", "TARGET_UNDER_TEST": "PRMT5 (Homo sapiens, UniProt O14744)", "IC50": "0.5 to 5 µM"}
{"MOLECULE": "CCN1CCN(c2nc(NC3COC3)cc(C(=O)NC[C@H](O)CN3CCc4cc(OCc5cnco5)ccc4C3)n2)CC1 [Compound 353]", "TARGET_UNDER_TEST": "PRMT5 (Homo sapiens, UniProt O14744)", "IC50": "0.05 to 0.5 µM"}
{"MOLECULE": "Cc1c(OCc2cnco2)ccc2c1CCN(C[C@@H](O)CNC(=O)c1cc(NC3CCN(C(=O)C(C)(C)C)CC3)ncn1)C2 [Compound 523]", "TARGET_UNDER_TEST": "PRMT5 (Homo sapiens, UniProt O14744)", "IC50": "0.05 to 0.5 µM"}

Return reported IC50 values for all items listed beneath this line.
1. Cc1ncoc1COc1cc(F)c2c(c1)CCN(C[C@@H](O)CNC(=O)c1ccnc(NC3CCC3)c1)C2 [Compound 506]
2. CC(=O)N1CC(Nc2cc(C(=O)NC[C@H](O)CN3CCc4c(ccc(OCc5cnco5)c4C)C3)ccn2)C1 [Compound 512]
3. Cc1ncoc1COc1ccc2c(c1C)CCN(C[C@@H](O)CNC(=O)c1cc(NC3CCC3)ccn1)C2 [Compound 555]
4. Cc1c(OCc2cnco2)ccc2c1CCN(C[C@@H](O)CNC(=O)c1cccc(NC3CCC3)c1)C2 [Compound 351]
5. Cc1ncoc1COc1ccc2c(c1)CCN(C[C@@H](O)CNC(=O)c1cc(NC3CCC3)nc(N3CCN(C(C)C)CC3)c1)C2 [Compound 428]
6. CC(=O)N1CCC(Nc2cc(C(=O)NC[C@H](O)CN3CCc4c(ccc(OCc5ocnc5C)c4C)C3)cc(N3CCCCC3)n2)CC1 [Compound 595]
7. Cc1ncoc1COc1ccc2c(c1)CCN(C[C@@H](O)CNC(=O)c1cc(NC3CCC3)nc(N3CCN(C(=O)C(C)C)CC3)c1)C2 [Compound 463]
8. O=C(NC[C@H](O)CN1CCc2c(ccc(OCc3cnco3)c2Br)C1)c1ccnc(NC2CCC2)c1 [Compound 255]

-- reply
["0.05 to 0.5 µM", "0.05 to 0.5 µM", "0.05 to 0.5 µM", "0.5 to 5 µM", "0.05 to 0.5 µM", "0.05 to 0.5 µM", "0.05 to 0.5 µM", "0.5 to 5 µM"]

-- ask For the molecule CCCN(C)c1cc(C(=O)NC[C@H](O)CN2CCc3c(ccc(OCc4ocnc4C)c3C)C2)cc(NC2CCC2)n1 [Compound 480] , report IC50.
-- reply 0.05 to 0.5 µM
